# System: HUVEC normal human umbilical vein endothelial cells
# METHOD DESCRIPTION: SRB assay Example 17, HUVEC (20% FBS)
# Assay type: cell-based
# STATED CONDITIONS: 72 h
pIC50: −log10 of the molar value.

| COMPOUND | pIC50 |
| --- | --- |
| CN1CCN(c2ccc(-c3ccc(=O)[nH]n3)cc2C(F)(F)F)CC1 [YHHU-756] | 7.30 |

====

# Test system: human hepatoma cell line Bel-7402
# METHOD DESCRIPTION: SRB proliferation assay, Bel-7402
# Format: cell-based
# STATED CONDITIONS: BEL-7402 cultivated in vitro, 72 hours, given as bounds, read-out: The Inhibition Activities for Human Liver Cancer Cells BEL-7402 (IC50)
pIC50: −log10 of the molar value.

| MOLECULE | pIC50 |
| --- | --- |
| O=c1ccc(-c2ccc(NC3CCCCC3)c(C(F)(F)F)c2)n[nH]1 [YHHU-757] | > 8.00 |
| COc1ccc(-c2ccc(=O)[nH]n2)cc1C(F)(F)F [YHHU-762] | > 8.00 |
| COc1ccc(-c2ccc(=O)[nH]n2)cc1C(F)(F)F [YHHU-546] | > 7.00 |
| O=c1ccc(-c2ccc(NC3CCCCC3)c(C(F)(F)F)c2)n[nH]1 [YHHU-715] | > 5.00 |
